Every entry's value here was drawn from paper PMC10223284.

# Test system: human plasma
# procedure text: Ultracentrifugation (UC) plasma protein binding assay, fraction unbound in plasma (fup)
# condition set: mean fraction unbound over all replicates and runs, UC assay, human plasma
parameter: Mean Fu
// keep it numeric: no unit symbol after the value

Sample records with Mean Fu:
INSERT INTO results (compound, parameter, reading) VALUES
  ('FC(F)(F)COC(OCC(F)(F)F)OCC(F)(F)F [tris(Trifluoroethoxy)methane]', 'Mean Fu', 0.173),
  ('OCC(F)(F)C(F)(F)C(F)(F)C(F)F [1H,1H,5H-Perfluoropentanol]', 'Mean Fu', 0.362),
  ('CN(C(=O)C(F)(F)C(F)(F)C(F)(F)F)[Si](C)(C)C', 'Mean Fu', 0.545);

**Query** Retrieve Mean Fu measured for `OCC(F)(F)C(F)(F)C(F)(F)C(F)(F)C(F)(F)C(F)F` and print it.
**Result** 0.054
